# EXPERIMENTAL TARGET: T1, IL-18Rα/β heterodimer (Fc fused human IL-18Rα mixed and pre-incubated with Fc fused human IL-18Rβ) (human, UniProt Q13478 19-329; O95256 20-356, limits assumed)
# T1 construct: 6 µg/mL of each receptor mixed and pre-incubated 30 min before capture on anti-human IgG; also called alpha/beta heterodimer IL-18 receptor; not shown: Fc part
# T1 sequence (looked up) 1: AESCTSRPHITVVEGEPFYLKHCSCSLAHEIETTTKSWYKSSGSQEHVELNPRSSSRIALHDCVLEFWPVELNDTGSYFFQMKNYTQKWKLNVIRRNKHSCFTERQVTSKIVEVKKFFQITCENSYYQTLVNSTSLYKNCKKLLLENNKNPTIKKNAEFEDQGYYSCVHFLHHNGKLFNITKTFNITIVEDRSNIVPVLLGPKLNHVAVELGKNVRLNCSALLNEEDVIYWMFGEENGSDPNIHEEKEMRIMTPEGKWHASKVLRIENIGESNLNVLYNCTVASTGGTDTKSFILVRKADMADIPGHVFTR
# T1 sequence (looked up) 2: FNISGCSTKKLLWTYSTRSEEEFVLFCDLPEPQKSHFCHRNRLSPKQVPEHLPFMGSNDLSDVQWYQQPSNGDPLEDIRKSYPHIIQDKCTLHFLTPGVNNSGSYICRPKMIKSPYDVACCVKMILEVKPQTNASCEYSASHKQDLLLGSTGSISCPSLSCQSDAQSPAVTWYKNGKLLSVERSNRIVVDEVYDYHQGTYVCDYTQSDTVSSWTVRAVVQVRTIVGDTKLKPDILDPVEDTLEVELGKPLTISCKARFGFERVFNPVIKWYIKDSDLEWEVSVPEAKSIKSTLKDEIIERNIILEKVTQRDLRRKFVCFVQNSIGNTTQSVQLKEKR
# METHOD: SPR, Fc-IL-18Rα/Fc-IL-18Rβ mix captured, heterogeneous ligand model
METRIC NAME: koff (s⁻¹)
Please state the figure in s⁻¹; there is no need to write the unit.

GET /values?readout=koff&item= Modified IL-18 polypeptide of SEQ ID NO: 10 (E06K, K53A, S55A, T63A) (ligand) YFGKLKSKLSVIRNLNDQVLFIDQGNRPLFEDMTDSDCRDNAPRTIFIISMYADAQPRGMAVAISVKCEKISTLSCENKIISFKEMNPPDNIKDTKSDIIFFQRSVPGHDNKMQFESSSYEGYFLACEKERDLFKLILKKEDELGDRSIMFTVQNED 0.054
